Values were extracted from ChEMBL document CHEMBL1201862.

STUDY TARGET: DNA repair protein RAD52 homolog (Homo sapiens, UniProt P43351)
Sequence (P43351 whole entry): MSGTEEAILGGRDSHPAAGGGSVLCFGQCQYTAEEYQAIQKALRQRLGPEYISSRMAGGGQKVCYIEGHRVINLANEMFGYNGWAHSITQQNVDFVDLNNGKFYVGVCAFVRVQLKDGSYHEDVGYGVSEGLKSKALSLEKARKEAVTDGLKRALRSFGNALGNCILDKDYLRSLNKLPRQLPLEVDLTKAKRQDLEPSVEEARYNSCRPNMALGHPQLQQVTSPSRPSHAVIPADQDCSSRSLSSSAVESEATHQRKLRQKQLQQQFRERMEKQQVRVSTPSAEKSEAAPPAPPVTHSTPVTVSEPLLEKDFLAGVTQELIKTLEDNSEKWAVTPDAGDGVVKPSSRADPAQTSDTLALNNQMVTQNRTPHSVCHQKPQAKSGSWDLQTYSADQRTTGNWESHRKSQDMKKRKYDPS
Type: functional, biochemical
The source made the active and inactive calls.
READOUT KIND: AC50

CCN1CCN(c2ccc(Nc3ccnc4ccccc34)cc2)CC1 3.19 µM (active)
CCN1CCc2nc(N)sc2C1 23.4 µM (active)
COc1cc2c(cc1OC)-c1c3c(cc4c1[C@@H](C2)N(C)CC4)OCO3 1.18 µM (active)

// next entry
Request: Missing value: AC50, DNA repair protein RAD52 homolog (Homo sapiens, UniProt P43351), entry c1cc(OCCCN2CCCCC2)ccc1CN1CCCCC1 . Fill in?
Response: 10.3 µM (active)

====

MEASUREMENT PROTOCOL: inhibitors of intracellular T. cruzi replication, confirmation, NIH3T3 host cells, beta-gal luminescence (AID 2044);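 also: intracellular parasites grown in NIH/3T3 mouse fibroblasts as host cells; luminescent beta-galactosidase reporter signal from transgenic T. cruzi replicating inside host cells; inhibitors lower the luminescence signal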
Format: functional, cell-based
The source made the active and inactive calls.
This listing pairs compounds with measured EC50.

Request: Would you mind telling me what EC50 value was observed for COc1ccc(OC)c(NC(=O)c2cccc(Cn3cc(Br)c([N+](=O)[O-])n3)c2)c1 ?
Response: 794 nM (active)

Request: Name the reported EC50 value associated with the compound Cc1ccn2c(Nc3ccccc3)c(-c3ccccn3)nc2c1
Response: 1160 nM (active)

Request: Record request: EC50 value, item O=[N+]([O-])c1ccc(N2N=C(c3ccccc3)CC2c2ccccc2O)cc1 (stereo not drawn)
Response: 1450 nM (active)

Request: // returns reported EC50 for input Cc1ccc(-c2cc(C(F)F)nc(NCc3cccnc3)n2)cc1
Response: 3050 nM (active)

Request: Requested read-out: EC50. Entry: CC(=O)C1=C(C)NC(SCC(=O)c2ccc(Cl)cc2Cl)=C(C#N)C1c1ccco1 (stereo not drawn)
Response: 437 nM (active)

Request: Any idea what its EC50 is? The compound is O=C(Nc1nc2cc3c(cc2s1)OCO3)C1CC1
Response: 1300 nM (active)

Request: For the compound COC(=O)NC(=S)Nc1ccc(Oc2ccc(Cl)cc2)c(Cl)c1 , what EC50 is on record?
Response: 2410 nM (active)

Request: Consider the compound shown here: Cc1cc(C)c2nc(N3CCC(C(=O)NCCCN4CC(C)CC(C)C4)CC3)sc2c1 (stereo not drawn) What is its recorded EC50?
Response: 1220 nM (active)

====

Measured AC50 values are reported for all entries that follow.
MEASUREMENT PROTOCOL: P. falciparum Dd2 growth inhibitors, dose response, SYBR Green, cherry-picked samples (AID 1159567)
Type: functional, cell-based
Calls of active or inactive are those of the source.

COc1ccc(S(=O)(=O)N2CCCCN3[C@@H](CO)[C@@H](c4ccc(C#CCC(C)C)cc4)[C@@H]3C2)cc1 1630 nM (active)
C[C@H](CO)N1C[C@H](C)[C@@H](CN(C)Cc2ccc3c(c2)OCO3)Oc2ccc(NC(=O)Nc3ccc4c(c3)OCO4)cc2CC1=O 4280 nM (active)
CO[C@H]1CN(C)C(=O)c2ccc(NC(=O)Nc3ccc(C(F)(F)F)cc3)cc2OC[C@@H](C)NC[C@@H]1C 9450 nM (active)

Request: # get_value(readout='AC50', item= C[C@@H]1CN([C@@H](C)CO)C(=O)c2c(c3ccccc3n2C)-c2ccccc2CO[C@@H]1CN(C)Cc1cccc(C(F)(F)F)c1 )
Response: 1640 nM (active)
